A set of molecules tested on Sodium-dependent serotonin transporter (Rattus norvegicus, UniProt P31652), with measured Ki:
One number for each entry, in µM.

// solved cases for Ki follow
# molecule, unit-name, Ki
rows = [
    ("CCCN(CCCc1c[nH]c2ccc(F)cc12)[C@H]1COc2c(F)ccc(C(=O)NC)c2C1", "µM", 0.0113),
    ("CCCN(CCCc1c[nH]c2ccc(F)cc12)[C@H]1COc2cccc(C(N)=O)c2C1", "µM", 0.0234),
    ("NC(=O)c1cccc2c1CC(N(CCCc1c[nH]c3ccc(F)cc13)C1CCC1)CO2 (single isomer, unassigned; (-))", "µM", 0.0059),
]

# context switch: different molecule, same Ki
## Task // lookup Ki for CNC(=O)c1ccc(F)c2c1C[C@@H](N(CCCc1c[nH]c3ccc(F)cc13)C1CCC1)CO2
## Result 0.0102

----------
Exercise: for every item that follows, state its recorded pIC50.
assay-target: Sodium-dependent serotonin transporter (Homo sapiens)
Type: cell-based, JAR
Description: Inhibition of 5-HT transporter-mediated [3H]5HT uptake in human Jar cells
pIC50: −log10 of the molar value.

# count of solved cases: 3
# compound, result-value
data = [
    ("NC(=O)c1ccc(F)c2c1C[C@@H](N(CC1CC1)CC1CCc3[nH]c4ccc(F)cc4c3C1)CO2 (stereo in doubt; 59a)", "< 6.00"),
    ("NC(=O)c1ccc(F)c2c1CC(N(CCCCn1ccc3ccc(F)cc31)CC1CC1)CO2 (centres undefined)", "< 6.00"),
    ("NC(=O)c1ccc(F)c2c1CC(N(CCCCn1ccc3cccc(F)c31)CC1CC1)CO2 (centres undefined)", 6.86),
]

Next compound, please.
## Task What is its pIC50 for Sodium-dependent serotonin transporter (Homo sapiens)? Entry: NC(=O)c1ccc(F)c2c1CC(N(CCCCn1ccc3c(F)cccc31)CC1CC1)CO2 (centres undefined)
## Result < 6.00

----------
Provide the recorded IC50 for the entries that follow.
assay-target: Sodium-dependent serotonin transporter (Homo sapiens, UniProt P31645)
Sequence (P31645 whole entry): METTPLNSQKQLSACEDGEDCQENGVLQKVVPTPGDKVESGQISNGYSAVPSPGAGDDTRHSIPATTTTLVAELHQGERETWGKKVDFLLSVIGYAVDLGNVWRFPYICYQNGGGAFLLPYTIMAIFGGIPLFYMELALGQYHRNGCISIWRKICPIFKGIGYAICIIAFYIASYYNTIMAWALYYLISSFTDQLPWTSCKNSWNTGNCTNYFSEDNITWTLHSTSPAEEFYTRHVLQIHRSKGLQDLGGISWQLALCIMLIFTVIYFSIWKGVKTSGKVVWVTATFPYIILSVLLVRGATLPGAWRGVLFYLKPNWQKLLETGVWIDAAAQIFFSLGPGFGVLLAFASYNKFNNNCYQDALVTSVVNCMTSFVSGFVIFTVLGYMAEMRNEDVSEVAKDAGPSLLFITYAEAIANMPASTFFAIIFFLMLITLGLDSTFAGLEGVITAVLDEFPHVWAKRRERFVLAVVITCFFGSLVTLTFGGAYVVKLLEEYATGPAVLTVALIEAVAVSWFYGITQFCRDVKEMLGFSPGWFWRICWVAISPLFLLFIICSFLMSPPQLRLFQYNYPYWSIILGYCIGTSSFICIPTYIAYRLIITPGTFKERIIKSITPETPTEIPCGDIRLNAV
Format: cell-based, JAR

Solved entries (count: 4):
# molecule, assay-target, measurement-label, result-value
rows = [
    ("NC(=O)c1ccc(F)c2c1CC(N(CCCCn1ccc3cc(F)ccc31)CC1CC1)CO2 (stereo not given)", "Sodium-dependent serotonin transporter (Homo sapiens, UniProt P31645)", "IC50", "> 1 µM"),
    ("NC(=O)c1ccc(F)c2c1CC(N(CCCc1c[nH]c3c(Cl)cccc13)C1CCC1)CO2 (stereo not given)", "Sodium-dependent serotonin transporter (Homo sapiens, UniProt P31645)", "IC50", "> 1 µM"),
    ("NC(=O)c1cccc2c1CC(N(CCCc1c[nH]c3ccc(F)cc13)C1CCC1)CO2 (stereo in doubt; 35e)", "Sodium-dependent serotonin transporter (Homo sapiens, UniProt P31645)", "IC50", "0.114 µM"),
    ("CCCN(CCCCn1ccc2c(F)cccc21)C1COc2c(F)ccc(C(N)=O)c2C1 (stereo not given)", "Sodium-dependent serotonin transporter (Homo sapiens, UniProt P31645)", "IC50", "> 1 µM"),
]

## Task Param item = NC(=O)c1ccc(F)c2c1C[C@@H](NCC1CCc3[nH]c4ccc(F)cc4c3C1)CO2 (stereo in doubt; 57b) ; retrieve measured IC50.
## Result > 1 µM

----------
Here's what we have: Ki numbers for Sodium-dependent serotonin transporter (Rattus norvegicus).
Give bare numbers, in nM.

# molecule, assay-target, unit-name, Ki
records = [
    ("N#Cc1ccc2[nH]cc(CCCN(C3CCC3)C3COc4c(F)ccc(C(N)=O)c4C3)c2c1 (single isomer, unassigned; (+))", "Sodium-dependent serotonin transporter (Rattus norvegicus)", "nM", 9.05),
]

Can you give me Ki for all of these, one by one?
1. CCCN(CCCc1c[nH]c2ccc(F)cc12)C1COc2c(F)ccc(OC)c2C1 (centres undefined)
2. CNC(=O)c1ccc(F)c2c1CC(N(CCCc1c[nH]c3ccc(F)cc13)C1CCC1)CO2 (centres undefined)

## Result
1. 12.5
2. 8.3

----------
Species: Rattus norvegicus
assay-remarks: Displacement of [3H]prazosin from alpha1 adrenergic receptor in Sprague-Dawley rat cortical membrane at 1 uM
measurement-label: Activity
The reply must contain the numeric value and, after it, the unit.

Examples with their reported Activity follow.
# molecule, Activity
records = [
    ("N#Cc1ccc2[nH]cc(CCCN(C3CCC3)C3COc4c(F)ccc(C(N)=O)c4C3)c2c1 (single isomer, unassigned; (+))", "27%"),
    ("NC(=O)c1ccc(F)c2c1CC(N(CCCCn1ccc3cccc(F)c31)CC1CC1)CO2 (stereo not drawn)", "27%"),
    ("CCNC(=O)c1ccc(F)c2c1CC(N(CCCc1c[nH]c3ccc(F)cc13)C1CCC1)CO2 (stereo not drawn)", "12%"),
    ("CC(C)NC(=O)c1ccc(F)c2c1CC(N(CCCc1c[nH]c3ccc(F)cc13)C1CCC1)CO2 (stereo not drawn)", "4%"),
    ("COc1cccc2c1C[C@@H](N(CCCc1c[nH]c3ccc(F)cc13)C1CCC1)CO2", "15%"),
    ("O=C(NC1CCC1)c1ccc(F)c2c1CC(N(CCCc1c[nH]c3ccc(F)cc13)C1CCC1)CO2 (stereo not drawn)", "12%"),
]

// for each molecule in input: emit Activity
1. NC(=O)c1ccc(F)c2c1C[C@@H](NCC1CCc3[nH]c4ccc(F)cc4c3C1)CO2 (stereo in doubt; 57a)
2. N#Cc1ccc2[nH]cc(CCCN(C3CCC3)C3COc4c(F)ccc(C(N)=O)c4C3)c2c1 (single isomer, unassigned; (-))

## Result
1: 23%; 2: 19%

----------
assay-target: Sodium-dependent serotonin transporter (Homo sapiens)
Type: cell-based, JAR
measurement-label: pIC50
Answers are plain numbers, as −log10 of the molar value.

Example entries begin here.
# molecule, measurement-label, result-value
data = [
    ("CC(C)NC(=O)c1ccc(F)c2c1CC(N(CCCc1c[nH]c3ccc(F)cc13)C1CCC1)CO2 (centres undefined)", "pIC50", 7.35),
    ("NC(=O)c1ccc(Cl)c2c1CC(N(CCCc1c[nH]c3ccc(F)cc13)C1CCC1)CO2 (stereo in doubt; 35d)", "pIC50", 7.25),
]

API: the following record is the query input.
## Task Value wanted: pIC50 (Sodium-dependent serotonin transporter (Homo sapiens)) of entry O=C(NC1CCC1)c1ccc(F)c2c1CC(N(CCCc1c[nH]c3ccc(F)cc13)C1CCC1)CO2 (centres undefined)
## Result 7.15

----------
Hi there, I'd appreciate the recorded IC50 for every entry that follows.
assay-target: UniProt P31645
Type: cell-based, JAR
condition-details: jar

# compound, assay-target, result-value
records = [
    ("NC(=O)c1ccc(F)c2c1C[C@@H](N(CC1CC1)CC1CCc3[nH]c4ccc(F)cc4c3C1)CO2 (stereo in doubt; 59b)", "UniProt P31645", "> 1 µM"),
]

## Task Need IC50 of CCCN(CC1CCc2[nH]c3ccc(F)cc3c2C1)[C@H]1COc2c(F)ccc(C(N)=O)c2C1 (single isomer, unassigned; (+)) , thanks.
## Result > 1 µM

----------
Below are pKi values recorded for Sodium-dependent serotonin transporter (Rattus norvegicus, UniProt P31652).
Answers are plain numbers, as −log10 of the molar value.

Illustrative cases are given below, each with its answer.
# compound, pKi
measured = [
    ("NC(=O)c1cccc2c1CC(N(CCCc1c[nH]c3ccc(F)cc13)C1CCC1)CO2 (stereo in doubt; 35e)", 8.02),
    ("NC(=O)c1ccc(Cl)c2c1CC(N(CCCc1c[nH]c3ccc(F)cc13)C1CCC1)CO2 (stereo in doubt; 35d)", 8.43),
    ("NC(=O)c1ccc(Cl)c2c1CC(N(CCCc1c[nH]c3ccc(F)cc13)C1CCC1)CO2 (single isomer, unassigned; (-))", 8.70),
]

Lab note: next compound to report on.
## Task Recorded pKi for O=C(NC1CCC1)c1ccc(F)c2c1CC(N(CCCc1c[nH]c3ccc(F)cc13)C1CCC1)CO2 (centres undefined) , please?
## Result 8.14

----------
Entries with reported Ki on Sodium-dependent serotonin transporter (Rattus norvegicus, UniProt P31652)
Sequence (P31652 whole entry): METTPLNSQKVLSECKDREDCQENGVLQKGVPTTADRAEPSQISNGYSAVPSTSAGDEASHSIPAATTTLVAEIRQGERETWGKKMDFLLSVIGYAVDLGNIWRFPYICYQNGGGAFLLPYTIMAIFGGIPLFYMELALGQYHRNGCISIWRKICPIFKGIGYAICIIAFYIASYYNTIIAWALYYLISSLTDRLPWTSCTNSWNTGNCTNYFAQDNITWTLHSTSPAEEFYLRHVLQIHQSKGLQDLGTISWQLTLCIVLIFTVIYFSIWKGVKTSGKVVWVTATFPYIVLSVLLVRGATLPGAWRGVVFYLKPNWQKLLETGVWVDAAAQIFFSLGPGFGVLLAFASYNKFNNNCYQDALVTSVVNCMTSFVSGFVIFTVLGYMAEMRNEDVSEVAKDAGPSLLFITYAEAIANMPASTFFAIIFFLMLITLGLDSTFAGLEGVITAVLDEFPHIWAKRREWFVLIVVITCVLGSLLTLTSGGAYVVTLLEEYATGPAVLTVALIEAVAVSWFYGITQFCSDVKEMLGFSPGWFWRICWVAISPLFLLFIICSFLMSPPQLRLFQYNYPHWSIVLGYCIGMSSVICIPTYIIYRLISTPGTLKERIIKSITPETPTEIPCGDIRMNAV
Give bare numbers, in nM.

# molecule, Ki [nM]
rows = [
    ("NC(=O)c1ccc(F)c2c1CC(N(CCCCn1ccc3ccc(F)cc31)CC1CC1)CO2 (stereo not drawn)", 9.96),
]

Okay, now this molecule:
## Task Form entry - test system: Sodium-dependent serotonin transporter (Rattus norvegicus, UniProt P31652); read-out: Ki; molecule: CCNC(=O)c1ccc(F)c2c1CC(N(CCCc1c[nH]c3ccc(F)cc13)C1CCC1)CO2 (stereo not drawn)
## Result 9.47

----------
assay-target: 5-hydroxytryptamine receptor 1A (Homo sapiens)
Sequence (P08908 whole entry): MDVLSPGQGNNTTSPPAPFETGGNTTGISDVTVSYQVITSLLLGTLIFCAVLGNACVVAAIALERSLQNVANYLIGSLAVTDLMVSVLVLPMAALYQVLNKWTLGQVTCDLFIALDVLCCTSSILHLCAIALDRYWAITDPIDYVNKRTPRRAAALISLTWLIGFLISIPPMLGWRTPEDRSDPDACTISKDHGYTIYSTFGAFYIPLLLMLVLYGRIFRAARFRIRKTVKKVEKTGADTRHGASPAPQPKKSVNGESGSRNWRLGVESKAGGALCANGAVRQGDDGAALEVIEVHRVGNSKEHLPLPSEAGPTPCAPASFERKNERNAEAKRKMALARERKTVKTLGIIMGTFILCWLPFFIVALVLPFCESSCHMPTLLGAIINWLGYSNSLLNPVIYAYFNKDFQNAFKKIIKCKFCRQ
pIC50: −log10 of the molar value.
Field: pIC50. Provide a value for each of the compounds that follow.

Guide cases for pIC50, answers given:
# compound, assay-target, pIC50
measured = [
    ("NC(=O)c1ccc(F)c2c1C[C@@H](N(CC1CC1)CC1CCc3[nH]c4ccc(F)cc4c3C1)CO2 (stereo in doubt; 59a)", "5-hydroxytryptamine receptor 1A (Homo sapiens)", "< 6.00"),
    ("NC(=O)c1ccc(F)c2c1CC(N(CCCc1c[nH]c3c(Cl)cccc13)C1CCC1)CO2 (stereo not drawn)", "5-hydroxytryptamine receptor 1A (Homo sapiens)", "< 6.00"),
    ("NC(=O)c1ccc(Cl)c2c1CC(N(CCCc1c[nH]c3ccc(F)cc13)C1CCC1)CO2 (stereo in doubt; 35d)", "5-hydroxytryptamine receptor 1A (Homo sapiens)", "< 6.00"),
]

// each compound listed below needs its pIC50
1. N#Cc1ccc2[nH]cc(CCCN(C3CCC3)C3COc4c(F)ccc(C(N)=O)c4C3)c2c1 (single isomer, unassigned; (+))
2. O=C(O)c1ccc(F)c2c1CC(N(CCCc1c[nH]c3ccc(F)cc13)C1CCC1)CO2 (stereo not drawn)
3. NC(=O)c1ccc(F)c2c1CC(N(CCCCn1ccc3cccc(F)c31)C1CCC1)CO2 (stereo not drawn)
4. COc1ccc2[nH]cc(CCCN(C3CCC3)C3COc4c(F)ccc(C(N)=O)c4C3)c2c1 (stereo not drawn)
5. NC(=O)c1ccc(Cl)c2c1CC(N(CCCc1c[nH]c3ccc(F)cc13)C1CCC1)CO2 (single isomer, unassigned; (-))

## Result
1: 6.00; 2: < 5.70; 3: < 6.00; 4: 6.38; 5: 6.90
